Listed here are compounds together with their documented %Inh.
system: PIM1; conditions: concentration: 1 μM,replicates: in singlicate; n = 1;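 note: KINOMEscan kinase panel screen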

{"compound": "COc1ccc(C[C@@H](CN)NC(=O)c2cc(Br)c(-c3ccnc4[nH]ccc34)s2)cc1.Cl.Cl", "%Inh / %": 34}
{"compound": "CN(C)CC(O)COc1ccc(Nc2nccc(-c3cnn4nc(N5CCOCC5)ccc34)n2)cc1 (stereo not shown)", "%Inh / %": 15}
{"compound": "C[C@@H](Oc1cc(-c2cnn(C3CCNCC3)c2)cnc1N)c1c(Cl)ccc(F)c1Cl", "%Inh / %": 0}
{"compound": "Cc1ccc(-n2nc(C(C)(C)C)cc2NC(=O)Nc2ccc(OCCN3CCOCC3)c3ccccc23)cc1", "%Inh / %": 0}
{"compound": "CCn1c(-c2nonc2N)nc2c(C#CC(C)(C)O)nc(OCCN)cc21.Cl.Cl", "%Inh / %": 25}
{"compound": "Cc1cc(C(=O)Nc2ccc(Oc3ccc4nc(NC(=O)C5CC5)cn4n3)cc2)nn1-c1ccccc1", "%Inh / %": 2}
{"compound": "CN(C)CCOc1ccc(-c2cc(-c3c[nH]nc3-c3ccccn3)ccn2)cc1", "%Inh / %": 13}
{"compound": "Cc1ccc2c(-c3ccncc3)c(-c3ccc(F)cc3)nn2c1.Cl", "%Inh / %": 0}
{"compound": "C=CC(=O)Nc1cc2c(Nc3ccc(F)c(Cl)c3)ncnc2cc1OCCCN1CCOCC1", "%Inh / %": 2}
{"compound": "O=C(NCCCN1CCOC1=O)c1cnc(NCc2cc(Cl)ccc2Cl)nc1NC1CCCC1", "%Inh / %": 9}

----------
system: ERN1; details: concentration: 1 μM,replicates: in singlicate; n = 1
Rule: 1 for %Inh not less than 5%, 0 for anything less.

{"molecule": "Nc1nc(Nc2ccccc2)cc(-c2ccc3c(N)n[nH]c3c2)n1", "class": 0}
{"molecule": "Cc1cc2cn[nH]c2cc1-c1cccc2c(N)c(C(N)=O)nnc12", "class": 1}
{"molecule": "Cc1cc(C(=O)Nc2ccc(Oc3ccc4nc(NC(=O)C5CC5)cn4n3)cc2)nn1-c1ccccc1", "class": 0}
{"molecule": "CN(C)CCOc1ccc(-c2cc(-c3c[nH]nc3-c3ccccn3)ccn2)cc1", "class": 1}
{"molecule": "C[C@@H](Oc1cc(-c2cnn(C3CCNCC3)c2)cnc1N)c1c(Cl)ccc(F)c1Cl", "class": 1}
{"molecule": "O=C(NCCCN1CCOC1=O)c1cnc(NCc2cc(Cl)ccc2Cl)nc1NC1CCCC1", "class": 0}
{"molecule": "CCn1c(-c2nonc2N)nc2c(C#CC(C)(C)O)nc(OCCN)cc21.Cl.Cl", "class": 0}
{"molecule": "Cl.Cl.Nc1nc(-c2ccc3c(N)n[nH]c3c2)cc(N2CCCC(NC(=O)c3ccccc3)C2)n1 (stereo not shown)", "class": 1}
{"molecule": "Cc1n[nH]c2ccc(-c3cc(OC[C@@H](N)Cc4ccccc4)cnc3-c3ccoc3)cc12.O=C(O)C(F)(F)F.O=C(O)C(F)(F)F", "class": 0}
{"molecule": "C[C@H]1Oc2cc(cnc2N)-c2c(nn(C)c2C#N)CN(C)C(=O)c2ccc(F)cc21", "class": 0}
{"molecule": "Cc1ccc(-n2nc(C(C)(C)C)cc2NC(=O)Nc2ccc(OCCN3CCOCC3)c3ccccc23)cc1", "class": 0}

----------
tested on: BMPR1B; details: concentration: 1 μM,replicates: in singlicate; n = 1
recordedEndpoint: %Inh (%)

{"compound": "O=C(NCCNc1ccnc(NCc2ccc(F)cc2)n1)c1cc2ccccc2s1", "testResult": 0}
{"compound": "Cc1ccc2c(-c3ccncc3)c(-c3ccc(F)cc3)nn2c1.Cl", "testResult": 0}
{"compound": "CNC(=O)c1ccccc1Sc1ccc2c(/C=C/c3ccccn3)n[nH]c2c1", "testResult": 0}
{"compound": "C=CC(=O)Nc1cc2c(Nc3ccc(F)c(Cl)c3)ncnc2cc1OCCCN1CCOCC1", "testResult": 0}
{"compound": "Cl.Cl.NC[C@H](CC1CCCCC1)NC(=O)c1cc(Br)c(-c2ccnc3[nH]ccc23)s1", "testResult": 0}
{"compound": "C[C@H]1Oc2cc(cnc2N)-c2c(nn(C)c2C#N)CN(C)C(=O)c2ccc(F)cc21", "testResult": 0}
{"compound": "CC(C)Nc1cc(-c2ccc3c(N)n[nH]c3c2)nc(N)n1", "testResult": 0}
{"compound": "Cc1cc2cn[nH]c2cc1-c1cccc2c(N)c(C(N)=O)nnc12", "testResult": 88}
{"compound": "O=C(NCCCN1CCOC1=O)c1cnc(NCc2cc(Cl)ccc2Cl)nc1NC1CCCC1", "testResult": 0}
{"compound": "C[C@@H](Oc1cc(-c2cnn(C3CCNCC3)c2)cnc1N)c1c(Cl)ccc(F)c1Cl", "testResult": 79}
{"compound": "CCN(CC)CCCCNc1ncc2cc(-c3c(Cl)cccc3Cl)c(NC(=O)NC(C)(C)C)nc2n1", "testResult": 99.9}
{"compound": "Cl.Cl.NC[C@H](Cc1ccc(C(F)(F)F)cc1)NC(=O)c1cc(Br)c(-c2ccnc3[nH]ccc23)s1", "testResult": 0}
{"compound": "Cc1occc1-c1nc(N)c(OC[C@@H](N)Cc2c[nH]c3ccccc23)cc1-c1cc2c(C)n[nH]c2cn1", "testResult": 0}
{"compound": "Cl.Cl.Nc1nc(-c2ccc3c(N)n[nH]c3c2)cc(N2CCCC(NC(=O)c3ccccc3)C2)n1 (stereo not drawn)", "testResult": 0}
{"compound": "C[C@@H]1CCN(C(=O)CC#N)C[C@@H]1N(C)c1ncnc2[nH]ccc12", "testResult": 0}

----------
system: YANK2; construct: gene STK32B; settings: concentration: 1 μM,replicates: in singlicate; n = 1

{"compound": "O=C(NCCNc1ccnc(NCc2ccc(F)cc2)n1)c1cc2ccccc2s1 [GSK1379944]", "unitsText": "%", "%Inh": 0}
{"compound": "Cl.Oc1cc(-c2nc(-c3ccccc3)[nH]c2-c2ccncc2)ccc1Cl [SB-386023]", "unitsText": "%", "%Inh": 26}
{"compound": "CC(C)Nc1cc(-c2ccc3c(N)n[nH]c3c2)nc(N)n1 [GSK2221681]", "unitsText": "%", "%Inh": 0}
{"compound": "CNC(=O)c1ccccc1Sc1ccc2c(/C=C/c3ccccn3)n[nH]c2c1", "unitsText": "%", "%Inh": 0}
{"compound": "Cc1n[nH]c2ccc(-c3cc(OC[C@@H](N)Cc4ccccc4)cnc3-c3ccoc3)cc12.O=C(O)C(F)(F)F.O=C(O)C(F)(F)F [GSK507358]", "unitsText": "%", "%Inh": 90.5}
{"compound": "CCN(CC)CCCCNc1ncc2cc(-c3c(Cl)cccc3Cl)c(NC(=O)NC(C)(C)C)nc2n1", "unitsText": "%", "%Inh": 32}
{"compound": "NC(=O)c1cc(-c2ccccc2)cc2c(C3CCNCC3)c[nH]c12 [GSK301362]", "unitsText": "%", "%Inh": 0}
{"compound": "C[C@@H](Oc1cc(-c2cnn(C3CCNCC3)c2)cnc1N)c1c(Cl)ccc(F)c1Cl", "unitsText": "%", "%Inh": 0}
{"compound": "C[C@H]1Oc2cc(cnc2N)-c2c(nn(C)c2C#N)CN(C)C(=O)c2ccc(F)cc21", "unitsText": "%", "%Inh": 12}
{"compound": "CN(C)CC(O)COc1ccc(Nc2nccc(-c3cnn4nc(N5CCOCC5)ccc34)n2)cc1 (stereo not drawn) [GW767488]", "unitsText": "%", "%Inh": 0}
{"compound": "C[C@@H]1CCN(C(=O)CC#N)C[C@@H]1N(C)c1ncnc2[nH]ccc12", "unitsText": "%", "%Inh": 0}
{"compound": "Cl.Cl.Nc1nc(-c2ccc3c(N)n[nH]c3c2)cc(N2CCCC(NC(=O)c3ccccc3)C2)n1 (stereo not drawn) [GSK2286775]", "unitsText": "%", "%Inh": 0}
{"compound": "Nc1nc(Nc2ccccc2)cc(-c2ccc3c(N)n[nH]c3c2)n1 [GSK2225749]", "unitsText": "%", "%Inh": 0}
{"compound": "Cc1occc1-c1nc(N)c(OC[C@@H](N)Cc2c[nH]c3ccccc23)cc1-c1cc2c(C)n[nH]c2cn1 [GSK1660450]", "unitsText": "%", "%Inh": 95.2}
{"compound": "Cc1ccc2c(-c3ccncc3)c(-c3ccc(F)cc3)nn2c1.Cl [GW461484]", "unitsText": "%", "%Inh": 15}

----------
system: PRKCI; settings: concentration: 1 μM,replicates: in singlicate; n = 1

{"compound": "Cc1n[nH]c2ccc(-c3cc(OC[C@@H](N)Cc4ccccc4)cnc3-c3ccoc3)cc12.O=C(O)C(F)(F)F.O=C(O)C(F)(F)F [GSK507358]", "experimentalSystem": "PRKCI", "unitsText": "%", "%Inh": 33}
{"compound": "C[C@H]1Oc2cc(cnc2N)-c2c(nn(C)c2C#N)CN(C)C(=O)c2ccc(F)cc21", "experimentalSystem": "PRKCI", "unitsText": "%", "%Inh": 21}
{"compound": "CC(C)Nc1cc(-c2ccc3c(N)n[nH]c3c2)nc(N)n1 [GSK2221681]", "experimentalSystem": "PRKCI", "unitsText": "%", "%Inh": 11}
{"compound": "Cl.Oc1cc(-c2nc(-c3ccccc3)[nH]c2-c2ccncc2)ccc1Cl [SB-386023]", "experimentalSystem": "PRKCI", "unitsText": "%", "%Inh": 0}
{"compound": "Nc1nc(Nc2ccccc2)cc(-c2ccc3c(N)n[nH]c3c2)n1 [GSK2225749]", "experimentalSystem": "PRKCI", "unitsText": "%", "%Inh": 20}
{"compound": "CCN(CC)CCCCNc1ncc2cc(-c3c(Cl)cccc3Cl)c(NC(=O)NC(C)(C)C)nc2n1", "experimentalSystem": "PRKCI", "unitsText": "%", "%Inh": 19}
{"compound": "Cl.Cl.NC[C@H](CC1CCCCC1)NC(=O)c1cc(Br)c(-c2ccnc3[nH]ccc23)s1 [GSK1581427]", "experimentalSystem": "PRKCI", "unitsText": "%", "%Inh": 0}
{"compound": "NC(=O)c1cc(-c2ccccc2)cc2c(C3CCNCC3)c[nH]c12 [GSK301362]", "experimentalSystem": "PRKCI", "unitsText": "%", "%Inh": 35}
{"compound": "Cc1occc1-c1nc(N)c(OC[C@@H](N)Cc2c[nH]c3ccccc23)cc1-c1cc2c(C)n[nH]c2cn1 [GSK1660450]", "experimentalSystem": "PRKCI", "unitsText": "%", "%Inh": 34}
{"compound": "CCN(CC)CCOc1ccc(Nc2ncc3cc(-c4c(Cl)cccc4Cl)c(=O)n(C)c3n2)cc1 [SB-601273]", "experimentalSystem": "PRKCI", "unitsText": "%", "%Inh": 26}
{"compound": "Cc1ccc2c(-c3ccncc3)c(-c3ccc(F)cc3)nn2c1.Cl [GW461484]", "experimentalSystem": "PRKCI", "unitsText": "%", "%Inh": 28}
